Give measured growth inhibition span (percentage of cells killed), BT474 cells for each item. Keep answers brief.
Target: HER2 expressed on the surface of cells (human, UniProt P04626 23-1255)
Assay: cell-based or functional assay
Numbers only, in %.

Field: example entries. Status: answers known.
# binder, quantity-unit, reported-result
rows = [
    ("Variant 14022 (antibody, name in Kabat numbering, V domains shown, also called v14022) VH: EVQLVESGGGLVQPGGSLRLSCAASGFTFQDYTMDWVRQAPGKGLEWVGDVNPNSGGSIYNQRFKGRFTFSVDRSKNTLYLQMNSLRAEDTAVYYCARNLGPWFYFDYWGQGTLVTVSS VL: DIQMTQSPSSLSASVGDRVTITCKASQDVSIGVAWYQQKPGKAPKLLIWSASYRYTGVPSRFSGSGSGTDFTLTISSLQPEDFATYYCQQYYIYPYTFGQGTKVEIKR", "%", 28),
    ("Variant 14020 (antibody, name in Kabat numbering, V domains shown, also called v14020) VH: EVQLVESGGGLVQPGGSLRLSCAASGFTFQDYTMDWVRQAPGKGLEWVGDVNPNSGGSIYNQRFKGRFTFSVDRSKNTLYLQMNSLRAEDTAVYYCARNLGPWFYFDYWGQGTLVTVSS VL: DIQMTQSPSSLSASVGDRVTITCKASQDVSIGVAWYQQKPGKAPKLLIYSASYRYTGVPSRFSGSGSGTDFTLTISSLQPEDFATYYCQQYYIYPYTFGQGTKVEIKR", "%", 27),
]

Now for a further binder.
Task item: Suppose we examine the binder Variant 12471 (antibody, human IgG1, kappa, name in Kabat numbering, V domains shown, Kabat numbering; also called v12471; FSA version of v9996) VH: EVQLVESGGGLVQPGGSLRLSCAASGFTFADYTMDWVRQAPGKGLEWVGDVNPNSGGSIYNQRFKGRFTFSVDRSKNTLYLQMNSLRAEDTAVYYCARNLGPSFYFDYWGQGTLVTVSS VL: DIQMTQSPSSLSASVGDRVTITCKASQDVSIGVAWYQQKPGKAPKLLIYSASYRYTGVPSRFSGSGSGTDFTLTISSLQPEDFATYYCQQYYIYPATFGQGTKVEIKR ; what growth inhibition span (percentage of cells killed), BT474 cells value has been reported?
Reply: 26
